protocol.description: Pharmacokinetics in Rhesus monkeys
Type: in vivo
conditions.used: rhesus monkey, in vivo, po, 10 mg/kg, Cmax, monkey 34920, PO 10 mg/kg
endpoint.name: Cmax (ng/mL)
Give bare numbers, in ng/mL.

Lab book: Cmax of Cc1ccc2c(c1)c1c(n2CCc2ccccc2)CCN(C)C1 [AVN-101] noted as 53

====

protocol.description: Pharmacokinetics in Wistar rats, IV/IP/PO
Type: in vivo
conditions.used: Wistar, rat, plasma, po, 5 mg/kg
endpoint.name: Cmax (ng/mL)
Give bare numbers, in ng/mL.

Lab book: Cmax of Cc1ccc2c(c1)c1c(n2CCc2ccccc2)CCN(C)C1 noted as 50

These entries and their values trace back to paper PMC4969713.
